Every entry's value here was drawn from patent US20240327502A1.

Would you kindly list PRNT IC50 for each of these binders?
- Substrate: F protein of RSV B/Washington virus (respiratory syncytial virus B, Washington strain)
- test: cell-based or functional assay
Answers are plain numbers, in µg/mL.

Below, 2 binders whose answers are already recorded.
Q: For the binder M3A06 (antibody, V domains shown) VH: EVQLVESGGGLVKPGGSLRLSCAASGFTLTSYSMNWVRQAPGKGLEWVSSISSSSSYIHYADSVKGRFTISRDNAKNSVYLQMNSLRAEDTAAYYCARVARELDPFDMWGQGTVVTVAS VL: QSVLTQPPSVSGAPGQRVTISCTGSSSNIGAGYDVHWYQQLPGTAPKLLVYANNNRPSGVPDRFSGSKSGTSASLAITGLQADDEADYYCQSYDRSLSGSVFGGGTKLTVL , what PRNT IC50 is on record?
Ans: 0.0274

Q: Entry under review: M4A05 (antibody, V domains shown) VH: EVQLVESGGGLVKPGGSLRLSCAAFGFSLSGYGMNWVRQAPGKGLQWVSSITASSSYITYRDSLRGRFTISRDNAQNSLYLDMTALRVEDTAVYYCATNGKLPPYFDHWGQGVLVVVSS VL: QSVLTQPPSVSGAPGQRVTISCTGSGSNIGAGYDVHWYQQLPGTAPKLLIYDNNHRASGVPDRVSASWSGTSASLAITGLQAEDEADYYCQSYDRNLEGVVFGGGTKLTVL . Reported PRNT IC50?
Ans: 0.0295

Turning now to a further record.
Q: Look up PRNT IC50 for this binder: M3B02 (antibody, V domains shown) VH: EVQLVESGGGLVKPGGSLRISCVASEFTLSGYAMNWVRQVPGKGLEWVSSISSSSSYINYADFVKGRFTISRDNAKNSVFLQLNSLRPEDTALYYCVRERPTAILPYLDLWGRGTLVTVSS VL: QSVLTQPPSVSGAPGQRVTISCTGSSSNIGAGYDVQWYQQSPGTAPKLLIHGNNNRPSGVPDRFSGSKSGTSASLAITGLQAEDEADYYCQSYDRSLSGWVFGGGTKLTVL
Ans: 0.0153
